molecular target: hM1 mAChR (Homo sapiens); construct: expressed in transfected cells; test: IP1 accumulation assay (ACh concentration-response curves in absence or presence of modulator); assay type: cell-based; settings: IP1 accumulation; operational model
observation type: log τB (logarithm of intrinsic efficacy of the modulator)

COc1ccc(Cn2cc(C(=O)O)c(=O)c3ccccc32)cc1 [BQCA, reference compound] = 0.76
Cn1cc(-c2ccc(COc3ncccc3-c3cc(=O)n(C4CCCCC4O)cn3)cc2)cn1 (stereo not shown) [Compound 26a] = 0.54
Cn1cc(-c2ccc(COc3ccccc3-c3ccn(C4CCCCC4O)c(=O)c3)cc2)cn1 (stereo not shown) [Compound 1] = 0.60
Cn1cc(-c2ccc(COc3ncccc3-c3ccn(C4CCCCC4O)c(=O)c3)cc2)cn1 (stereo not shown) [Compound 7f] = 0.56

###

assay: in vivo; conditions: male, C57Bl/6 J, mouse, brain, intraperitoneal, 10 mg/kg
observation type: concentration at 90 min (nM)
Respond numerically; units are nM and should not be typed.

Could you tell me which concentration at 90 min is on file for Cn1cc(-c2ccc(COc3ncccc3-c3ccn(C4CCCCC4O)c(=O)c3)cc2)cn1 (stereo not shown) ?
100

###

target: hM1 mAChR (Homo sapiens, UniProt P11229); construct: expressed in transfected cells; assay: Whole-cell [3H]NMS equilibrium competition radioligand binding; conditions: [3H]NMS binding; mean ± SEM
observation type: log αACh (logarithm of binding cooperativity between ACh and modulator)

COc1ccc(Cn2cc(C(=O)O)c(=O)c3ccccc32)cc1 [BQCA, reference compound] = 2.39
Cn1cc(-c2ccc(COc3ccsc3-c3ccn(C4CCCCC4O)c(=O)c3)cc2)cn1 (stereo not drawn) = 2.58
Cn1cc(-c2ccc(COc3ccccc3-c3ccn(C4CCCCC4O)c(=O)c3)cc2)cn1 (stereo not drawn) = 2.05
Cn1cc(-c2ccc(COc3ccccc3-c3cc(=O)n(C4CCCCC4O)cn3)cc2)cn1 (stereo not drawn) = 2.38
Cn1cc(-c2ccc(COc3ccccc3-c3ccn(C4CCCCC4=O)c(=O)c3)cc2)cn1 (stereo not drawn) [Compound 13d] = 1.72
CN(C)C(=O)Cn1ccc(-c2ccccc2OCc2ccc(-c3cnn(C)c3)cc2)cc1=O [Compound 13c] = 1.86
Cn1cc(-c2ccc(COc3ncccc3-c3cc(=O)n(C4CCCCC4O)cn3)cc2)cn1 (stereo not drawn) [Compound 26a] = 2.08
Cn1cc(-c2ccc(COc3ncccc3-c3ccn(C4CCCCC4O)c(=O)c3)cc2)cn1 (stereo not drawn) = 2.38
O=c1cc(-c2ccccc2OCc2ccc(-n3cccn3)nc2)ncn1C1CCCCC1O (stereo not drawn) [Compound 27b] = 2.18

###

Biological target: hM1 mAChR (Homo sapiens, UniProt P11229)
Construct: expressed in transfected cells
Sequence (P11229 1-460): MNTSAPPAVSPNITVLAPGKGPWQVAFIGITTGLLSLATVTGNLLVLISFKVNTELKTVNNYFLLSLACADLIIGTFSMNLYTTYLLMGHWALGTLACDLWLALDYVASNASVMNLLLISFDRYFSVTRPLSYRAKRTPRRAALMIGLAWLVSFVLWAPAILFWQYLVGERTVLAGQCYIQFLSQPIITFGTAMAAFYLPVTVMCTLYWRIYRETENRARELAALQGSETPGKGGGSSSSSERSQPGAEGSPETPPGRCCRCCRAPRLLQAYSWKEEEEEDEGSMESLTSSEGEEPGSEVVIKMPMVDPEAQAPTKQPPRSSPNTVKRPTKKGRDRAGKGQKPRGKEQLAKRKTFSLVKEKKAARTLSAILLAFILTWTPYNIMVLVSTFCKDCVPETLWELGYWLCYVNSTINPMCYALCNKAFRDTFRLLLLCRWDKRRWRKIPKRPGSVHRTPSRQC
Experiment: IP1 accumulation assay (ACh concentration-response curves in absence or presence of modulator)
Type: cell-based
Conditions: 1 μM modulator; FlpIn CHO hM1 cells; mean ± SEM, 3 experiments; read-out: Δbaseline [1 μM]: change in basal response in presence of M1 PAM compared to control curve
observation type: activation at 1 µM (%)

Examples with answers:
Cn1cc(-c2ccc(COc3ccncc3-c3ccn(C4CCCCC4O)c(=O)c3)cc2)cn1 (stereo not shown) [Compound 7d] = -1.09
Cn1cc(-c2ccc(COc3cccc(O)c3-c3ccn(C4CCCCC4O)c(=O)c3)cc2)cn1 (stereo not shown) [Compound 7g] = 12.8
O=c1cc(-c2ccccc2OCc2ccc(-n3cccn3)nc2)ncn1C1CCCCC1O (stereo not shown) [Compound 27b] = 38.5

[I] COC1CCCCC1n1cnc(-c2ccccc2OCc2ccc(-c3cnn(C)c3)cc2)cc1=O (stereo not shown) [Compound 28a]
[II] Cn1cc(-c2ccc(COc3ncccc3-c3cc(=O)n(C4CCCCC4O)cn3)cc2)cn1 (stereo not shown) [Compound 26a]
[III] Cn1cc(-c2ccc(COc3ncccc3-c3ccn(C4CCCCC4O)c(=O)c3)cc2)cn1 (stereo not shown) [Compound 7f]
# desc sort on activation at 1 µM across 3 compounds Please write the labels in the order that was asked for.
II, I, III

[1] Cn1cc(-c2ccc(COc3ccsc3-c3ccn(C4CCCCC4O)c(=O)c3)cc2)cn1 (stereo not shown) [Compound 7h]
[2] Cn1cc(-c2ccc(COc3ccccc3-c3ccn(C4CCCCC4)c(=O)c3)cc2)cn1 [Compound 13b]
Given the two records 1 and 2 , choose the one whose activation at 1 µM value is lower. Mark your answer with the label of the selected entry.
2
(2: 5%, 1: 70.8%)

[I] Cn1cc(-c2ccc(COc3cccc(O)c3-c3cc(=O)n(C4CCCCC4O)cn3)cc2)cn1 (stereo not shown) [Compound 26d]
[II] Cc1ccc(-c2ccn(C3CCCCC3O)c(=O)c2)c(OCc2ccc(-c3cnn(C)c3)cc2)c1 (stereo not shown) [Compound 7b]
Given the two records I and II , choose the one whose activation at 1 µM value is lower. Mark your answer with the label of the selected entry.
II
(II: 3.5%, I: 82.1%)

[1] Cn1cc(-c2ccc(COc3cnccc3-c3ccn(C4CCCCC4O)c(=O)c3)cc2)cn1 (stereo not shown) [Compound 7e]
[2] Cc1cc(OCc2ccc(-c3cnn(C)c3)cc2)c(-c2ccn(C3CCCCC3O)c(=O)c2)cc1C (stereo not shown) [Compound 7c]
[3] Cn1cc(-c2ccc(Cn3cccc(-c4ccn(C5CCCCC5O)c(=O)c4)c3=O)cc2)cn1 (stereo not shown) [Compound 9]
# desc sort on activation at 1 µM across 3 compounds Please write the labels in the order that was asked for.
1, 3, 2
